Please provide measured Potency for the entries that follow.
test: qHTS profiling for inhibitors of Plasmodium falciparum proliferation (AID 504749); note: potency is the fitted concentration of half-maximal effect; nearly all actives have a fitted effect of over 60% in size; details: P. falciparum in erythrocytes, SYBR Green DNA, 72 h; parasite line A
Records with an inconclusive call do not appear. Activity calls are given as the source filed them. Calls come from the whole dose curve; as a rule, active = well fitted inhibition curve with a large enough effect; inconclusive = small, poorly fitted or top-dose-only effect; inactive = flat fitted curve, though single readings scatter.

Per the record, `C[CH2][Hg][S]c1ccccc1C(=O)O` has Potency of 2.82 µM (active)

Per the record, `Oc1cccc[c]1[Hg][Cl]` has Potency of 5.01 µM (active)

Per the record, `C/C(=C\c1csc(C)n1)[C@@H]1C[C@@H]2O[C@]2(C)CCC[C@H](C)[C@H](O)[C@@H](C)C(=O)C(C)(C)[C@@H](O)CC(=O)O1` has Potency of 0.002 µM (active)

Per the record, CN1[C@@H]2CC[C@H]1CC(OC1c3ccccc3CCc3ccccc31)C2 (some centres undefined) has Potency of 3.98 µM (active)

====

test: qHTS assay for small molecule agonists of retinoid X receptor alpha signaling (AID 588544); conditions: HEK293T RXRa-UAS-bla, beta-lactamase reporter, 18 h; 530 nm emission
Results filed as inconclusive are left out.
observed-property: max response (%)
Numeric answer only, unit % assumed.

Per the record, `S=C=S` has max response of -8.91

Per the record, `CCOP(=O)(OCC)O/C(=C/Cl)c1ccc(Cl)cc1Cl` has max response of 10.8

Per the record, `O=C1C=CC(=O)C=C1` has max response of -3.86

Per the record, `CCCCCl` has max response of -0.522

Per the record, `CC(C)CCON=O` has max response of 4.6

Per the record, `Clc1ccccc1Cl` has max response of -11.2

Per the record, O=C(NCNC(=O)NC1C(=O)NC(=O)N1CO)NC1C(=O)NC(=O)N1CO (stereo not given) has max response of 0.0503

Per the record, `O=c1[nH]c(=O)n(Cl)c(=O)n1Cl` has max response of -3.39

Per the record, `C[C@H]1CCC[C@H](O)CCCCCc2cc(O)cc(O)c2C(=O)O1` has max response of 13

Per the record, `O=CC=O` has max response of -3.86

Per the record, `CCCSP(=O)(OCC)SCCC` has max response of -4.11

Per the record, `ClC=C(Cl)Cl` has max response of -19

Per the record, `O=Cc1ccco1` has max response of -14.8

Per the record, `C[C@]12CCC(=O)C[C@@H]1CC[C@@H]1[C@@H]2CC[C@]2(C)[C@@H](O)CC[C@@H]12` has max response of 21

====

Please provide measured max response for the entries that follow.
system: HaCat; assay: Cytotoxic Profiling of Annotated Libraries Using Quantitative High-Throughput Screening (AID 1296008); details: Five cell lines viability, CellTiter-Glo ATP luminescence, 48-72 h; stronger effect = lower value; note: % is set by controls: 0 for no effect and ±100 for the full control effect; nearly all actives have a fitted effect of over 60% in size
Results filed as inconclusive are left out.
Numeric answer only, unit % assumed.

Per the record, CC(=O)OC1CC(O)C(C)(C)C2CC(OC(C)=O)C3(C)C(CCC4(C)C(c5ccoc5)C(=O)C5OC543)C12C (stereo unspecified) has max response of -11.6

Per the record, C[C@@]12C[C@@H](c3ccoc3)OC(=O)C1CC[C@]1(C)[C@H]2[C@H]2C=C[C@]1(O)C(=O)O2 (stereo partly specified) has max response of -0.33

Per the record, `CN1CCC[C@@H]1Cc1c[nH]c2ccc(Nc3ncccc3[N+](=O)[O-])cc12` has max response of -5.05

Per the record, `C[C@]12CC[C@H]3[C@@H]([C@H](O)CC4=CC(=O)CC[C@@]43C)[C@@H]1CC[C@@H]2O` has max response of -25.7

Per the record, `COc1cc2c(cc1OC)[C@@]13CCN4CC5=CCO[C@H]6CC(=O)N2[C@H]1[C@H]6[C@H]5C[C@H]43` has max response of -7.03

Per the record, CCC1NC(=O)C2C(Cl)C(Cl)CN2C(=O)C(C(C)O)NC(=O)CC(c2ccccc2)NC(=O)C(CO)NC1=O (stereo unspecified) has max response of 4.16
